These data points were gathered from patent US20240360134A1.

- system.under.test: VEGFR2, unphosphorylated (Homo sapiens (Human))
- Sequence (P35968 whole entry, looked up): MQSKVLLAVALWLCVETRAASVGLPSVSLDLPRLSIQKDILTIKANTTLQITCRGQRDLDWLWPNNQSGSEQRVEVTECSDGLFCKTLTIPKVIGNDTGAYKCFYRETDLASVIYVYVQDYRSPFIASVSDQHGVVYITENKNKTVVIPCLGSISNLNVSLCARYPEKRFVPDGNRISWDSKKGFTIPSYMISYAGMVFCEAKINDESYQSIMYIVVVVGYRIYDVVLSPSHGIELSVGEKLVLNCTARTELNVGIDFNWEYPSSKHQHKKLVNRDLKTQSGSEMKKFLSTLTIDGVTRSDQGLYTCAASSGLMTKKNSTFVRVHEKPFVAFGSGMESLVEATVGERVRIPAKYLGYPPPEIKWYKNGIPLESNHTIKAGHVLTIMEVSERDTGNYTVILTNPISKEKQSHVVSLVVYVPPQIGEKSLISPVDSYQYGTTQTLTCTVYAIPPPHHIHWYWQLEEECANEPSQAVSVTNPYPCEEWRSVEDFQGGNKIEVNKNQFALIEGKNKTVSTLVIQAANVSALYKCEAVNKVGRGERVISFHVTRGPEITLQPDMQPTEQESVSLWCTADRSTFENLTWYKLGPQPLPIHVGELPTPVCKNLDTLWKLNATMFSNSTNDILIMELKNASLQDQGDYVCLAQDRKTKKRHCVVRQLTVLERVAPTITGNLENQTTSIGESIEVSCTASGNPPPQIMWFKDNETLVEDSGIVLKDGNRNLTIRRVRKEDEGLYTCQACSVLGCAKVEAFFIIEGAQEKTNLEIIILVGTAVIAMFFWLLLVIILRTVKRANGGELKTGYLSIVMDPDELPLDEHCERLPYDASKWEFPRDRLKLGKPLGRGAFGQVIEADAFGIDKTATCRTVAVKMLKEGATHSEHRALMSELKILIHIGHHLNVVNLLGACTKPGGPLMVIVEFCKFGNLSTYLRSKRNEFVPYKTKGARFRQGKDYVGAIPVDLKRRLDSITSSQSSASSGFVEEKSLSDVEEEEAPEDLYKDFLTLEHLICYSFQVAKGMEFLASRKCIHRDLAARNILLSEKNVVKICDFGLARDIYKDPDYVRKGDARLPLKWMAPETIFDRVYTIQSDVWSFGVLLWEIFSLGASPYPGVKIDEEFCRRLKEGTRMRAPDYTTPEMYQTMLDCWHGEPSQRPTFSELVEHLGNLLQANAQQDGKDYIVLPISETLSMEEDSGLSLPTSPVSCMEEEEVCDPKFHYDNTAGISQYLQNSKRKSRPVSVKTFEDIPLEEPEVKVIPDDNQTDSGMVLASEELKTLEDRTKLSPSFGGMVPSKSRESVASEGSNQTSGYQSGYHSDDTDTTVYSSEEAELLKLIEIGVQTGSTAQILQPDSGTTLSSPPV
- method.summary: VEGFR ADP GLO assay
- condition.context: 5 nM VEGFR2, 1.2 mM ATP, 1 mg/mL Srctide, 180 min
pIC50: −log10 of the molar value.

- compound: "COCCn1cc(Nc2ncc3c(Nc4cc(NC(=O)CN5CCC6(CC6)C5)cnc4C)nn(C)c3n2)cn1"
  system.under.test: "VEGFR2, unphosphorylated (Homo sapiens (Human))"
  pIC50: 5.31
- compound: "Cc1ncc(C(=O)NCCN2CCCC2(C)C)cc1Nc1nn(C)c2nc(Nc3cccc(C4(C(=O)O)CC4)c3)ncc12"
  system.under.test: "VEGFR2, unphosphorylated (Homo sapiens (Human))"
  pIC50: 6.15
- compound: "Cc1ncc(C(=O)NCCN(CCCO)C2CCCC2)cc1Nc1nn(C)c2nc(Nc3cnn(C)c3)ncc12"
  system.under.test: "VEGFR2, unphosphorylated (Homo sapiens (Human))"
  pIC50: "< 5.12"
- compound: "Cc1ncc(C(=O)NCCN2CCCCC23CC3)cc1Nc1nn(C)c2nc(Nc3cncnc3)ncc12"
  system.under.test: "VEGFR2, unphosphorylated (Homo sapiens (Human))"
  pIC50: "< 5.12"
- compound: "Cc1ncc(C(=O)NCCN2CCCC2(C)C)cc1Nc1nn(C)c2nc(Nc3ccnc(N4CCC(CCO)CC4)c3)ncc12"
  system.under.test: "VEGFR2, unphosphorylated (Homo sapiens (Human))"
  pIC50: "< 5.12"
- compound: "Cc1ncc(C(=O)NCCN2C[C@H](C)O[C@@H](C)C2)cc1Nc1nn(C)c2nc(Nc3ccncc3)ncc12"
  system.under.test: "VEGFR2, unphosphorylated (Homo sapiens (Human))"
  pIC50: "< 5.12"
- compound: "Cc1ncc(C(=O)NCCN2CCCC2(C)C)cc1Nc1nn(C)c2nc(Nc3cnn(C)c3)ncc12"
  system.under.test: "VEGFR2, unphosphorylated (Homo sapiens (Human))"
  pIC50: "< 5.12"
- compound: "Cc1ncc(C(=O)NCCN2CCCC2(C)C)cc1Nc1nn(C)c2nc(Nc3ccc(N)nc3)ncc12"
  system.under.test: "VEGFR2, unphosphorylated (Homo sapiens (Human))"
  pIC50: "< 5.12"
- compound: "COCCn1cc(Nc2ncc3c(Nc4cc(C(=O)NCCN5CCCC5(C)C)cnc4C)nn(C)c3n2)cn1"
  system.under.test: "VEGFR2, unphosphorylated (Homo sapiens (Human))"
  pIC50: "< 5.12"
- compound: "Cc1ncc(C(=O)NCCN2CCC[C@@H]2C)cc1Nc1nn(C)c2nc(Nc3cnn(C)c3C)ncc12"
  system.under.test: "VEGFR2, unphosphorylated (Homo sapiens (Human))"
  pIC50: "< 5.12"
- compound: "Cc1ncc(C(=O)NCCN2CC(C)CC(C)C2)cc1Nc1nn(C)c2nc(Nc3cnn(C)c3)ncc12 (stereo not drawn)"
  system.under.test: "VEGFR2, unphosphorylated (Homo sapiens (Human))"
  pIC50: "< 5.12"
- compound: "Cc1nn(C)cc1Nc1ncc2c(Nc3cc(C(=O)NCCN4CCC5(CC5)C4)cnc3C)nn(C)c2n1"
  system.under.test: "VEGFR2, unphosphorylated (Homo sapiens (Human))"
  pIC50: "< 5.12"
- compound: "Cc1ccc(C(=O)NCCN2CCCC2(C)C)cc1Nc1nn(C)c2nc(Nc3cnn(C)c3)ncc12"
  system.under.test: "VEGFR2, unphosphorylated (Homo sapiens (Human))"
  pIC50: 5.88
- compound: "Cc1ncc(C(=O)NCCN2CCC3(CCC3)CC2)cc1Nc1nn(C)c2nc(Nc3cncnc3)ncc12"
  system.under.test: "VEGFR2, unphosphorylated (Homo sapiens (Human))"
  pIC50: "< 5.12"
- compound: "Cc1ncc(C(=O)NCCN2CCS(=O)(=O)CC2)cc1Nc1nn(C)c2nc(Nc3cnn(C)c3)ncc12"
  system.under.test: "VEGFR2, unphosphorylated (Homo sapiens (Human))"
  pIC50: "< 5.12"
